These entries and their values trace back to paper PMC3816974.

test system: M. tuberculosis H37Rv; experiment: M. tuberculosis H37Rv MIC assay; format: cell-based, Mycobacterium tuberculosis; settings: Mycobacterium tuberculosis, H37RV, read-out: MIC, μM (7H9-glucose)
measured_property: MIC

compound: O=C(Nc1nc(-c2ccccn2)cs1)c1cccc([N+](=O)[O-])c1
recorded_measurement: 1.6 to 3.1 µM

compound: c1ccc(Nc2nc(-c3ccccn3)cs2)nc1
recorded_measurement: 0.78 to 1.6 µM

compound: O=C(Nc1nc(-c2ccccn2)cs1)c1ccccc1Br
recorded_measurement: 0.39 to 0.78 µM

compound: COc1cccc(C(=O)Nc2nc(-c3ccccn3)cs2)c1
recorded_measurement: 0.19 to 0.39 µM

compound: O=C(Nc1nc(-c2ccccn2)cs1)C1CC1
recorded_measurement: 12 to 25 µM

compound: O=C(Nc1nc(-c2ccccn2)cs1)c1ccsc1
recorded_measurement: 1.6 to 3.1 µM

compound: FC(F)(F)c1ccccc1Nc1nc(-c2ccccn2)cs1
recorded_measurement: 12 to 25 µM

compound: O=C(Nc1nc(-c2ccccn2)cs1)c1ccccc1F
recorded_measurement: 1.6 to 3.1 µM

compound: O=C(Nc1nc(-c2ccccn2)cs1)c1cccc(Cl)c1
recorded_measurement: 0.19 to 0.39 µM

compound: O=C(Nc1nc(-c2ccccn2)cs1)c1cccnc1Cl
recorded_measurement: 0.39 to 0.78 µM

compound: O=C(Nc1nc(-c2ccccn2)cs1)c1ccc(OCc2ccccc2)cc1
recorded_measurement: 0.19 to 0.39 µM

compound: CC1CC1C(=O)Nc1nc(-c2ccccn2)cs1 (centres unmarked)
recorded_measurement: 6.3 to 12.5 µM

compound: O=C(Nc1nc(-c2ccccn2)cs1)c1ccoc1
recorded_measurement: 3.1 to 6.3 µM

compound: O=C(Nc1nc(-c2ccccn2)cs1)c1ccc(F)cc1F
recorded_measurement: 0.39 to 0.78 µM

compound: O=C(Nc1nc(-c2ccccn2)cs1)c1ccccc1O
recorded_measurement: 1.6 to 3.1 µM

compound: O=C(Nc1nc(-c2ccccn2)cs1)c1ccccc1Cl
recorded_measurement: 0.39 to 0.78 µM

compound: O=C(Nc1nc(-c2ccccn2)cs1)c1cccc(Br)c1
recorded_measurement: 0.098 to 0.19 µM

compound: CCCC(=O)Nc1nc(-c2ccccn2)cs1
recorded_measurement: 12 to 25 µM

compound: Cc1cccc(C(=O)Nc2nc(-c3ccccn3)cs2)c1
recorded_measurement: 0.19 to 0.39 µM

compound: O=C(Nc1nc(-c2ccccn2)cs1)c1ccco1
recorded_measurement: 3.1 to 6.3 µM

compound: O=C(Nc1nc(-c2ccccn2)cs1)c1cccc(OCc2ccccc2)c1
recorded_measurement: 0.39 to 0.78 µM

compound: O=C(Nc1nc(-c2ccccn2)cs1)c1ccccc1[N+](=O)[O-]
recorded_measurement: 1.6 to 3.1 µM

compound: O=C(Nc1nc(-c2ccccn2)cs1)c1cccc(F)c1
recorded_measurement: 0.19 to 0.39 µM

compound: O=C(Nc1nc(-c2ccccn2)cs1)c1ccncc1
recorded_measurement: 1.6 to 3.1 µM

compound: O=C(Nc1nc(-c2ccccn2)cs1)c1cccs1
recorded_measurement: 1.6 to 3.1 µM

compound: O=C(Nc1nc(-c2ccccn2)cs1)c1ccc(F)c(F)c1
recorded_measurement: 1.6 to 3.1 µM
